biological target: human muscarinic M4 receptor (Homo sapiens); construct: expressed in transfected cells; experiment: Alphascreen Surefire phospho-ERK1/2 functional assay, M4; assay type: cell-based; conditions: CHO cells stably expressing human M4; phospho-ERK1/2; relative to ACh
Sequence (P08173 whole entry): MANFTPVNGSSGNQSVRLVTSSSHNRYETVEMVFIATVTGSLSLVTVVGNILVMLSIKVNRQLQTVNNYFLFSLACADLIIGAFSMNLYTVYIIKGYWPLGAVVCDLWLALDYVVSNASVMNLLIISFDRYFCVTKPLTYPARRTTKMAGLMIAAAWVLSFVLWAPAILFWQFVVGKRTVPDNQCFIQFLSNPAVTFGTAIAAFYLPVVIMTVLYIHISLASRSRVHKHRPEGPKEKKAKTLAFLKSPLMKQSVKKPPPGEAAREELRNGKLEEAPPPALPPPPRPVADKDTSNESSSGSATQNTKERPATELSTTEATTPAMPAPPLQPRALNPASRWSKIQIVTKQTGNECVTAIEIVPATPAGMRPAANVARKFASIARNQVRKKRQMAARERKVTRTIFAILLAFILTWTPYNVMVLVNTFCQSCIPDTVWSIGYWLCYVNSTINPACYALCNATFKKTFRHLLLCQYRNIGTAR
Reported % Emax cf. ACh (M4) is given for each of the following molecules.

{"MOLECULE": "CCOC(=O)N1CCC2(CC(N3CCC(N(CC(C)(C)OC)C(C)=O)CC3)C2)C1 (single isomer, unassigned) [2-29 Isomer 2]", "ASSAYED SYSTEM": "human muscarinic M4 receptor (Homo sapiens)", "% Emax cf. ACh (M4), %": 84}
{"MOLECULE": "CCOC(=O)N1CCC2(CC(N3CCC(N(CC4(O)CCC4)C(C)=O)CC3)C2)C1 (single isomer, unassigned) [2-31 Isomer 2]", "ASSAYED SYSTEM": "human muscarinic M4 receptor (Homo sapiens)", "% Emax cf. ACh (M4), %": 95}
{"MOLECULE": "CCOC(=O)N1CCC2(CC(N3CCC(N(CC4(OC)CCC4)C(C)=O)CC3)C2)C1 (single isomer, unassigned) [2-30 Isomer 1]", "ASSAYED SYSTEM": "human muscarinic M4 receptor (Homo sapiens)", "% Emax cf. ACh (M4), %": 59}
{"MOLECULE": "CCOC(=O)N1CCC2(CC(N3CCC(N(CC4CC4)C(C)=O)CC3)C2)C1 (single isomer, unassigned) [2-20 Isomer 1]", "ASSAYED SYSTEM": "human muscarinic M4 receptor (Homo sapiens)", "% Emax cf. ACh (M4), %": 36}
{"MOLECULE": "CCOC(=O)N1CCC2(CC(N3CCC(N(CC(C)(C)OC)C(C)=O)CC3)C2)C1 (single isomer, unassigned) [2-29 Isomer 1]", "ASSAYED SYSTEM": "human muscarinic M4 receptor (Homo sapiens)", "% Emax cf. ACh (M4), %": 56}
{"MOLECULE": "CCOC(=O)N1CCC2(CC(N3CCC(N(C(C)=O)C4CC4)CC3)C2)C1 (single isomer, unassigned) [2-3 Isomer 1]", "ASSAYED SYSTEM": "human muscarinic M4 receptor (Homo sapiens)", "% Emax cf. ACh (M4), %": 13}
{"MOLECULE": "CCOC(=O)N1CCC2(CC(N3CCC(C(C)n4cccn4)CC3)C2)C1 (single isomer, unassigned) [2-65 Isomer 2a]", "ASSAYED SYSTEM": "human muscarinic M4 receptor (Homo sapiens)", "% Emax cf. ACh (M4), %": 45}
{"MOLECULE": "CCOC(=O)N1CCC2(CC(N3CCC(C(C)n4cccn4)CC3)C2)C1 (single isomer, unassigned) [2-65 Isomer 1a]", "ASSAYED SYSTEM": "human muscarinic M4 receptor (Homo sapiens)", "% Emax cf. ACh (M4), %": 14}
{"MOLECULE": "CCOC(=O)N1CCC2(CC(N3CCC(N(CC(C)C)C(C)=O)CC3)C2)C1 (single isomer, unassigned) [2-19 Isomer 1]", "ASSAYED SYSTEM": "human muscarinic M4 receptor (Homo sapiens)", "% Emax cf. ACh (M4), %": 62}
{"MOLECULE": "CCN(C(C)=O)C1CCN(C2CC3(CCN(C(=O)OC)C3)C2)CC1 (single isomer, unassigned) [2-17 Isomer 2]", "ASSAYED SYSTEM": "human muscarinic M4 receptor (Homo sapiens)", "% Emax cf. ACh (M4), %": 92}
{"MOLECULE": "CCOC(=O)N1CCC2(CC(N3CCC(CN(C(C)=O)C4CC4)CC3)C2)C1 (single isomer, unassigned) [2-12 Isomer 2]", "ASSAYED SYSTEM": "human muscarinic M4 receptor (Homo sapiens)", "% Emax cf. ACh (M4), %": 41}
{"MOLECULE": "CCOC(=O)N1CCC2(CC(N3CCC(N(CC(C)(C)F)C(C)=O)CC3)C2)C1 (single isomer, unassigned) [2-26 Isomer 2]", "ASSAYED SYSTEM": "human muscarinic M4 receptor (Homo sapiens)", "% Emax cf. ACh (M4), %": 114}
{"MOLECULE": "CCOC(=O)N1CCC2(CC(N3CCC(N(CC4CC4)C(C)=O)CC3)C2)C1 (single isomer, unassigned) [2-20 Isomer 2]", "ASSAYED SYSTEM": "human muscarinic M4 receptor (Homo sapiens)", "% Emax cf. ACh (M4), %": 108}
{"MOLECULE": "CCOC(=O)N1CCC2(CC(N3CCC(N(CC(C)C)C(C)=O)CC3)C2)C1 (single isomer, unassigned) [2-19 Isomer 2]", "ASSAYED SYSTEM": "human muscarinic M4 receptor (Homo sapiens)", "% Emax cf. ACh (M4), %": 118}
{"MOLECULE": "CCOC(=O)N1CCC2(CC(N3CCC(N(C(C)=O)C4CC4)CC3)C2)C1 (single isomer, unassigned) [2-3 Isomer 2]", "ASSAYED SYSTEM": "human muscarinic M4 receptor (Homo sapiens)", "% Emax cf. ACh (M4), %": 93}
{"MOLECULE": "CCOC(=O)N1CCC2(CC(N3CCC(N(CC)C(C)=O)CC3)C2)C1 (single isomer, unassigned) [2-2 Isomer 2]", "ASSAYED SYSTEM": "human muscarinic M4 receptor (Homo sapiens)", "% Emax cf. ACh (M4), %": 99}
{"MOLECULE": "CCOC(=O)N1CCC2(CC(N3CCC(N(CC(C)(C)F)C(C)=O)CC3)C2)C1 (single isomer, unassigned) [2-26 Isomer 1]", "ASSAYED SYSTEM": "human muscarinic M4 receptor (Homo sapiens)", "% Emax cf. ACh (M4), %": 52}
{"MOLECULE": "CCOC(=O)N1CCC2(CC(N3CCC(N(CC4(O)CCC4)C(C)=O)CC3)C2)C1 (single isomer, unassigned) [2-31 Isomer 1]", "ASSAYED SYSTEM": "human muscarinic M4 receptor (Homo sapiens)", "% Emax cf. ACh (M4), %": 62}
{"MOLECULE": "CCOC(=O)N1CCC2(CC(N3CCC(N(CC4(OC)CCC4)C(C)=O)CC3)C2)C1 (single isomer, unassigned) [2-30 Isomer 2]", "ASSAYED SYSTEM": "human muscarinic M4 receptor (Homo sapiens)", "% Emax cf. ACh (M4), %": 96}

---

target: human muscarinic M1 receptor (Homo sapiens); assay: Alphascreen Surefire phospho-ERK1/2 functional assay, M1; type: cell-based; details: CHO cells stably expressing human M1; phospho-ERK1/2; read-out: pEC50 M1 (converted)
Sequence (P11229 whole entry): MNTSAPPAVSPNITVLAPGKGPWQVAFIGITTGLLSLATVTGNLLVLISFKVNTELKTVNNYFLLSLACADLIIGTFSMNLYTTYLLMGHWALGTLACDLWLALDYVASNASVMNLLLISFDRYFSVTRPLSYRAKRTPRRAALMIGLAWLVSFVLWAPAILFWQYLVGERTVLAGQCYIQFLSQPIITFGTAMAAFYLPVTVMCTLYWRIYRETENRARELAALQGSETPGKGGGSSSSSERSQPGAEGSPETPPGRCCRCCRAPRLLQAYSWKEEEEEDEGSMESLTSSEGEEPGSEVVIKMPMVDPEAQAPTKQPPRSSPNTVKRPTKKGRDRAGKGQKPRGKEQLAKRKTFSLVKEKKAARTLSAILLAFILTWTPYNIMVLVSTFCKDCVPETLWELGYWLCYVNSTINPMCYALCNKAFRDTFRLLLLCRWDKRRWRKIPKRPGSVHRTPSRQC
OBSERVATION TYPE: log10 of EC50 (log10 of the value in nM)

{"MOLECULE": "CCOC(=O)N1CC2(CC(N3CCC(N(CC)C(C)=O)CC3)C2)C1", "log10 of EC50": 3.80}
{"MOLECULE": "CCOC(=O)N1CCC2(CC(N3CCC(C(C)n4cccn4)CC3)C2)C1 (single isomer, unassigned) [2-65 Isomer 1a]", "log10 of EC50": 3.90}
{"MOLECULE": "CCOC(=O)N1CCC2(CC(N3CCC(N(CC)OC)CC3)C2)C1 (single isomer, unassigned) [2-57 Isomer 2]", "log10 of EC50": 3.00}
{"MOLECULE": "CCOC(=O)N1CCC2(CC(N3CCC(N(C(C)=O)C4CC4)CC3)C2)C1 (single isomer, unassigned) [2-3 Isomer 1]", "log10 of EC50": 3.30}
{"MOLECULE": "CCOC(=O)N1CCC2(CC(N3CCC(N(CC4CC4)C(C)=O)CC3)C2)C1 (single isomer, unassigned) [2-20 Isomer 2]", "log10 of EC50": 2.30}
{"MOLECULE": "CCOC(=O)N1CCC2(CC(N3CCC(N(Cc4cnco4)C(C)=O)CC3)C2)C1 (single isomer, unassigned) [2-36 Isomer 2]", "log10 of EC50": 3.40}
{"MOLECULE": "CCCN(C(C)=O)C1CCN(C2CC3(CCN(C(=O)OCC)C3)C2)CC1 (single isomer, unassigned) [2-18 Isomer 2]", "log10 of EC50": 3.30}
{"MOLECULE": "CCOC(=O)N1CCC2(CC(N3CCC(N(CC(F)(F)F)C4COC4)CC3)C2)C1 (single isomer, unassigned) [2-54 Isomer 2]", "log10 of EC50": 2.40}
{"MOLECULE": "CCOC(=O)N1CCC2(CC(N3CCC(N(Cc4ncco4)C(C)=O)CC3)C2)C1 (single isomer, unassigned) [2-37 Isomer 2]", "log10 of EC50": 3.10}
{"MOLECULE": "CCOC(=O)N1CCC2(CC(N3CCC(N(CC(F)(F)F)C(C)=O)CC3)C2)C1 (single isomer, unassigned) [2-25 Isomer 2]", "log10 of EC50": 3.60}
{"MOLECULE": "CCOC(=O)N1CCC2(CC(N3CCC(C(C)n4cccn4)CC3)C2)C1 (single isomer, unassigned) [2-65 Isomer 2a]", "log10 of EC50": 3.00}
{"MOLECULE": "CCOC(=O)N1CCC2(CC(N3CCC(N(C(=O)CC)C4CC4)CC3)C2)C1 (single isomer, unassigned) [2-5 Isomer 2]", "log10 of EC50": 2.80}
{"MOLECULE": "CCOC(=O)N1CCC2(CC(N3CCC(N(C(=O)C(F)(F)F)C4CC4)CC3)C2)C1 (single isomer, unassigned) [2-4 Isomer 2]", "log10 of EC50": 2.30}
{"MOLECULE": "CCOC(=O)N1CCC2(CC(N3CCC(N(CC4(C)COC4)C(C)=O)CC3)C2)C1 (single isomer, unassigned) [2-23 Isomer 2]", "log10 of EC50": 3.10}
{"MOLECULE": "CCOC(=O)N1CCC2(CC(N3CCC(N(CC4(O)CCC4)C(C)=O)CC3)C2)C1 (single isomer, unassigned) [2-31 Isomer 1]", "log10 of EC50": 3.60}
{"MOLECULE": "CCOC(=O)N1CCC2(CC(N3CCC(N(CC(C)C)C(C)=O)CC3)C2)C1 (single isomer, unassigned) [2-19 Isomer 2]", "log10 of EC50": 2.00}
{"MOLECULE": "[2H]C([2H])(C)OC(=O)N1CCC2(CC(N3CCC(N(CC)C(C)=O)CC3)C2)C1 (single isomer, unassigned) [2-38 Isomer 2]", "log10 of EC50": 2.80}
{"MOLECULE": "CCOC(=O)N1CCC2(CC(N3CCC(N(CC4(O)CCC4)C(C)=O)CC3)C2)C1 (single isomer, unassigned) [2-31 Isomer 2]", "log10 of EC50": 2.60}
{"MOLECULE": "CCOC(=O)N1CCC2(CC(N3CCC(N(C(=O)OC)C(C)C)CC3)C2)C1 (single isomer, unassigned) [2-41 Isomer 2]", "log10 of EC50": 2.50}
{"MOLECULE": "CCOC(=O)N1CCC2(CC(N3CCC(N(CC)C(=O)N(C)C)CC3)C2)C1 (single isomer, unassigned) [Example 2-44 Isomer 2]", "log10 of EC50": 3.40}
{"MOLECULE": "CCOC(=O)N1CCC2(CC(N3CCC(N(C(C)=O)C4(C)CCC4)CC3)C2)C1 (single isomer, unassigned) [2-22 Isomer 2]", "log10 of EC50": 2.50}
{"MOLECULE": "CCOC(=O)N1CCC2(CC(N3CCC(N(C(=O)OC)C4COC4)CC3)C2)C1 (single isomer, unassigned) [2-47 Isomer 2]", "log10 of EC50": 2.60}
